Test system: HCT-15
Assay protocol: Cytotoxicity against human HCT-15 cells assessed as cell viability at 10 uM incubated for 48 hrs by sulforhodamine B assay relative to control
Assay type: functional
Measurement conditions: read-out: Activity
Field: label. Allowed values: TRUE (viability at 10 µM < 40%) or FALSE (viability at 10 µM >= 40%).

QUERY: Does this compound meet the criterion viability at 10 µM < 40%? O=C(NCCNc1nccc(-c2c(-c3cccc(F)c3)nc3sccn23)n1)C1CCCCC1
RESULT: FALSE

QUERY: Can you handle O=C(NCCCNc1nccc(-c2c(-c3cccc(F)c3)nc3sccn23)n1)c1ccc(F)cc1 next?
RESULT: FALSE

QUERY: // query: O=S(=O)(NCCNc1nccc(-c2c(-c3cccc(F)c3)nc3sccn23)n1)c1ccccc1
RESULT: TRUE

QUERY: Field entry: O=S(=O)(NCCCNc1nccc(-c2c(-c3cccc(F)c3)nc3sccn23)n1)c1ccccc1
RESULT: TRUE

QUERY: Item: O=C(NCCNc1nccc(-c2c(-c3cccc(F)c3)nc3sccn23)n1)c1c(F)cccc1F
RESULT: TRUE

QUERY: Same lookup for O=S(=O)(NCCCNc1nccc(-c2c(-c3cccc(F)c3)nc3sccn23)n1)c1ccc(Br)cc1 , please.
RESULT: TRUE

QUERY: Next entry: O=S(=O)(NCCNc1nccc(-c2c(-c3cccc(F)c3)nc3sccn23)n1)c1ccc(F)cc1
RESULT: TRUE

QUERY: Moving on to the next compound: O=S(=O)(NCCNc1nccc(-c2c(-c3cccc(F)c3)nc3sccn23)n1)c1ccc(Br)cc1
RESULT: TRUE

QUERY: And O=C(NCCNc1nccc(-c2c(-c3cccc(F)c3)nc3sccn23)n1)c1ccc(C(F)(F)F)cc1 ?
RESULT: FALSE

QUERY: One more compound: O=S(=O)(NCCNc1nccc(-c2c(-c3cccc(F)c3)nc3sccn23)n1)c1ccc(C(F)(F)F)cc1
RESULT: FALSE

QUERY: Same read-out for Cc1ccc(S(=O)(=O)NCCCNc2nccc(-c3c(-c4cccc(F)c4)nc4sccn34)n2)cc1 ?
RESULT: FALSE

* * *

Test system: OVCAR-8
Assay protocol: Cytotoxicity against human OVCAR-8 cells assessed as cell viability at 10 uM incubated for 48 hrs by sulforhodamine B assay relative to control
Type: functional
Measurement conditions: read-out: Activity
Binarize viability at 10 µM at 60%; below is rule met, at or above is rule not met.

For orientation, consider the following solved cases.
O=C(NCCCNc1nccc(-c2c(-c3cccc(F)c3)nc3sccn23)n1)C1CCCCC1 :: rule not met
O=C(NCCNc1nccc(-c2c(-c3cccc(F)c3)nc3sccn23)n1)c1c(F)cccc1F :: rule met
O=C(NCCNc1nccc(-c2c(-c3cccc(F)c3)nc3sccn23)n1)c1ccc(C(F)(F)F)cc1 :: rule met
O=S(=O)(NCCCNc1nccc(-c2c(-c3cccc(F)c3)nc3sccn23)n1)c1ccc(C(F)(F)F)cc1 :: rule not met
O=C(NCCCNc1nccc(-c2c(-c3cccc(F)c3)nc3sccn23)n1)c1ccc(C(F)(F)F)cc1 :: rule not met

QUERY: Check if viability at 10 µM falls below 60% for O=C(NCCNc1nccc(-c2c(-c3cccc(F)c3)nc3sccn23)n1)C1CCCCC1 .
RESULT: rule met

QUERY: Entry to check: O=S(=O)(NCCCNc1nccc(-c2c(-c3cccc(F)c3)nc3sccn23)n1)c1ccc(F)cc1
RESULT: rule met

QUERY: // next record O=S(=O)(NCCNc1nccc(-c2c(-c3cccc(F)c3)nc3sccn23)n1)c1ccc(Br)cc1
RESULT: rule met

QUERY: Item: O=S(=O)(NCCNc1nccc(-c2c(-c3cccc(F)c3)nc3sccn23)n1)c1cccc2ccccc12
RESULT: rule not met

QUERY: Same again, this time with O=S(=O)(NCCNc1nccc(-c2c(-c3cccc(F)c3)nc3sccn23)n1)c1ccc(C(F)(F)F)cc1
RESULT: rule not met

* * *

Test system: SF-295
Assay protocol: Cytotoxicity against human SF-295 cells assessed as cell viability at 10 uM incubated for 48 hrs by sulforhodamine B assay relative to control
Format: functional
Measurement conditions: read-out: Activity
Note: every record was labeled by where its viability at 10 µM sits among lo: < 70%; mid: ≥ 70% and < 90%; hi: ≥ 90%

Take a look at these entries with their results.
O=C(NCCNc1nccc(-c2c(-c3cccc(F)c3)nc3sccn23)n1)C1CCCCC1 :: hi
O=C(NCCNc1nccc(-c2c(-c3cccc(F)c3)nc3sccn23)n1)c1ccc(C(F)(F)F)cc1 :: mid
O=S(=O)(NCCCNc1nccc(-c2c(-c3cccc(F)c3)nc3sccn23)n1)c1ccccc1 :: mid

QUERY: Which category does the recorded viability at 10 µM put O=S(=O)(NCCNc1nccc(-c2c(-c3cccc(F)c3)nc3sccn23)n1)c1ccccc1 in?
RESULT: lo

* * *

Tested on: ACHN
Assay protocol: Cytotoxicity against human ACHN cells assessed as cell viability at 10 uM incubated for 48 hrs by sulforhodamine B assay relative to control
Assay type: functional
Measurement conditions: read-out: Activity
Metric: viability at 10 µM
Write the numeric value and follow it with the unit.

QUERY: Item under review: O=C(NCCNc1nccc(-c2c(-c3cccc(F)c3)nc3sccn23)n1)c1c(F)cccc1F . Reported viability at 10 µM?
RESULT: 26%

QUERY: Repeat with O=S(=O)(NCCNc1nccc(-c2c(-c3cccc(F)c3)nc3sccn23)n1)c1ccccc1
RESULT: 26%

QUERY: Now the same for O=C(NCCNc1nccc(-c2c(-c3cccc(F)c3)nc3sccn23)n1)c1ccccc1
RESULT: 29.1%

QUERY: Same read-out for O=S(=O)(NCCNc1nccc(-c2c(-c3cccc(F)c3)nc3sccn23)n1)c1ccc(C(F)(F)F)cc1 ?
RESULT: 82.2%

QUERY: Quick one: O=S(=O)(NCCNc1nccc(-c2c(-c3cccc(F)c3)nc3sccn23)n1)c1ccc(Cl)cc1
RESULT: 35.7%

QUERY: Now give it for Cc1ccc(S(=O)(=O)NCCCNc2nccc(-c3c(-c4cccc(F)c4)nc4sccn34)n2)cc1 too.
RESULT: 65.5%

* * *

Tested on: SF-295
Assay protocol: Cytotoxicity against human SF-295 cells assessed as cell viability at 10 uM incubated for 48 hrs by sulforhodamine B assay relative to control
Assay type: functional
Measurement conditions: read-out: Activity
Metric: viability at 10 µM
Write the quantity with the unit trailing the number.

Field: example entries. Status: answers known.
O=S(=O)(NCCNc1nccc(-c2c(-c3cccc(F)c3)nc3sccn23)n1)c1cccc(F)c1 :: 80.6%
O=C(NCCNc1nccc(-c2c(-c3cccc(F)c3)nc3sccn23)n1)c1ccc(Cl)cc1 :: 73.8%

QUERY: # input molecule: O=S(=O)(NCCCNc1nccc(-c2c(-c3cccc(F)c3)nc3sccn23)n1)c1ccc(Br)cc1 ; wanted: its viability at 10 µM
RESULT: 64.2%

QUERY: Entry to check: O=S(=O)(NCCCNc1nccc(-c2c(-c3cccc(F)c3)nc3sccn23)n1)c1ccc(O)cc1
RESULT: 92%

QUERY: Also, O=S(=O)(NCCCNc1nccc(-c2c(-c3cccc(F)c3)nc3sccn23)n1)c1ccc(Cl)cc1 please.
RESULT: 87.1%

QUERY: Same question, O=S(=O)(NCCNc1nccc(-c2c(-c3cccc(F)c3)nc3sccn23)n1)c1ccc(Br)cc1 this time
RESULT: 58.7%

* * *

Tested on: SK-MEL-2
Assay protocol: Cytotoxicity against human SK-MEL-2 cells assessed as cell viability at 10 uM incubated for 48 hrs by sulforhodamine B assay relative to control
Format: functional
Measurement conditions: read-out: Activity
Label fulfilled when viability at 10 µM < 90%; otherwise not fulfilled.

O=C(NCCCNc1nccc(-c2c(-c3cccc(F)c3)nc3sccn23)n1)c1ccc(C(F)(F)F)cc1 :: not fulfilled
O=C(NCCCNc1nccc(-c2c(-c3cccc(F)c3)nc3sccn23)n1)c1ccc(F)cc1 :: not fulfilled
O=S(=O)(NCCCNc1nccc(-c2c(-c3cccc(F)c3)nc3sccn23)n1)c1cccc(F)c1 :: fulfilled
O=S(=O)(NCCCNc1nccc(-c2c(-c3cccc(F)c3)nc3sccn23)n1)c1cccc2ccccc12 :: fulfilled

Now take the following molecule into account.
QUERY: Input O=S(=O)(NCCCNc1nccc(-c2c(-c3cccc(F)c3)nc3sccn23)n1)c1ccc(Cl)cc1 ; condition: viability at 10 µM strictly below 90%. Does it hold?
RESULT: fulfilled

* * *

System: NCI-H23
Assay protocol: Cytotoxicity against human NCI-H23 cells assessed as cell viability at 10 uM incubated for 48 hrs by sulforhodamine B assay relative to control
Format: functional
Measurement conditions: read-out: Activity
just bin them by viability at 10 µM: c1: < 70%; c2: ≥ 70% and < 90%; c3: ≥ 90%

QUERY: Which class does O=S(=O)(NCCNc1nccc(-c2c(-c3cccc(F)c3)nc3sccn23)n1)c1cccc2ccccc12 fall in?
RESULT: c3
